System: SK-MEL-28 melanoma
Method: NCI tumour cell line growth inhibition, 48 h
Task for the reader: assign each of the following compounds its reported TGI.

[Q] I'd like to know its TGI. The compound in question is CC(N)Cc1ccc(C(=O)Cl)cc1 (stereo unspecified)
[A] > 100 µM

[Q] # TGI lookup, item Clc1cc(OC2C3CC4CC(C3)CC2C4)nc(Cl)n1 (stereo unspecified)
[A] 29.1 µM

[Q] Need TGI of COc1ccc2c(=O)c(O)c(-c3ccc(OC)c(OC)c3)oc2c1 , thanks.
[A] > 100 µM

[Q] # TGI lookup, item O=C(Nc1ccccc1OC(F)(F)F)Nc1n[nH]c2ccccc12
[A] > 100 µM

[Q] Quick one: TGI of C/C(CC(=O)CCC(=O)Nc1cccc(C(F)(F)F)c1)=N\NC(=O)NN ?
[A] > 100 µM

[Q] Data request, read-out TGI, for Clc1ccc(/C=C/c2nc3ccccc3s2)cc1Cl
[A] > 100 µM

----------
System: HOP-92 NSCLC
Method: NCI tumour cell line growth inhibition, 48 h; in the data active means GI50 below about 0.43 µM; inactive means the rest
Your reply should match one of these outcome classes. active, inactive

[Q] Can you look up the reported call for COc1cc(-c2nn(-c3ccc(NC(=O)c4ccc(Cl)c(C(F)(F)F)c4)cc3)cc2-c2ccncc2)ccc1Cl for me?
[A] inactive

[Q] Would you mind telling me which call this test gave Cc1c2cnccc2c(C)c2c1c1ccccc1n2CCCN ?
[A] inactive

[Q] How was CC(C)CCC[C@@H](C)[C@H]1CC[C@H]2[C@@H]3CC=C4C[C@@H](C(C(=O)O)C(=O)O)CC[C@]4(C)[C@H]3CC[C@]12C classified in this test?
[A] active

[Q] For C#Cc1ccc(-n2c(/C=C/c3ccc(C(F)(F)F)cc3)nc3ncccc3c2=O)cc1 , which call appears in the assay record?
[A] inactive

[Q] // param item: CC1=C(C(=O)Nc2ccc(Cl)c(Cl)c2)C(c2cccc(Oc3ccccc3)c2)NC(=S)N1 (stereo not drawn) ; yields the recorded call
[A] inactive

[Q] # lookup: test call for CO[C@H](C(=O)[C@@H](O)[C@@H](C)O)[C@@H]1Cc2cc3cc(O[C@H]4C[C@@H](O[C@H]5C[C@@H](O)[C@H](O)C(C)O5)[C@H](O)C(C)O4)c(C)c(O)c3c(O)c2C(=O)[C@H]1O[C@H]1C[C@@H](O[C@H]2C[C@@H](O[C@H]3C[C@](C)(O)C(=O)C(C)O3)[C@@H](O)C(C)O2)[C@H](O)C(C)O1 (stereo partly drawn)
[A] active

[Q] Test call for this compound, please: O=C1/C(=C/c2cccc([N+](=O)[O-])c2)COc2ccc(O)cc21
[A] inactive

[Q] Short answer needed: outcome of this test for OCc1ccc(N2CCC2c2ccc(F)cc2)cc1Cl (stereo not drawn) ?
[A] inactive

[Q] # outcome recorded in this test, key = CSc1nc2c(c(=O)[nH]1)N=C1c3ccccc3C(=O)C1C(c1ccccc1)N2 (stereo not drawn)
[A] inactive

[Q] Please indicate how the test categorized CC1(C)CCc2c(c3c(c4c(=O)c(O)c(-c5ccc(O)cc5)oc24)OC(C)(C)CC3)O1 .
[A] inactive

[Q] Call for entry NC(=O)c1cccc2cn(-c3ccc([C@@H]4CCCNC4)cc3)nc12 :
[A] inactive

[Q] Entry CCCCOC(=O)C1OC(O[C@H]2CCC3(C)C(CCC4(C)C3CC=C3C5CC(C)(C)CCC5(C(=O)O)CC[C@]34C)C2(C)C)C(OC2OC(CO)C(O)C(O)C2O)C(OC2OC(CO)C(O)C(O)C2O)C1O (stereo partly drawn) : call = ?
[A] inactive

[Q] // return assay outcome for CCCCCN(CCCCC)CCCNc1c2c(nc3ccc(Cl)cc13)CCCC2
[A] inactive

----------
Field: TGI. Provide a value for each of the molecules that follow.
Tested on: CAKI-1 renal
Method: NCI tumour cell line growth inhibition, 48 h

[Q] Which TGI value belongs to CSc1nc2c(c(=O)[nH]1)N=C1c3ccccc3C(=O)C1C(c1ccccc1)N2 (stereo not given) ?
[A] > 100 µM

[Q] Reported TGI, molecule CNC(=O)C(C)C1CCC2(C)C=CC(=O)C(C)=C2C1O (stereo not given) : ____
[A] 91.7 µM

[Q] Data request, read-out TGI, for Cc1ccc(SCC(CSCCO)OCn2cnc3c2NC(N)=NC32OCCO2)cc1 (stereo not given)
[A] > 100 µM

[Q] Given Cn1cnc([N+](=O)[O-])c1Sc1nnc(-c2cccnc2)n1C , state its recorded TGI.
[A] 42.7 µM

[Q] Item under review: O=[N+]([O-])C(=C1NCCN1)/C(Cl)=C(\Cl)Br . Reported TGI?
[A] 30 µM

[Q] Would you kindly share the measured TGI for O=C1CC(c2ccc3c(c2)OCO3)Nc2ccccc21 (stereo not given) ?
[A] 47.5 µM

[Q] Fill in: TGI of CC12CCC(O)CC1CCC1C2CCC2(C)C(C3=CC(=O)OC3)CCC12O (stereo not given) is ___
[A] > 19.8 µM

[Q] # TGI lookup, item CC1(C)CCc2c(c3c(c4c(=O)c(O)c(-c5ccc(O)cc5)oc24)OC(C)(C)CC3)O1
[A] > 100 µM

[Q] Item under review: COC1=CC(c2ccc[nH]2)=N/C1=C\c1[nH]c(C)c(C(=O)OC(C)C)c1C . Reported TGI?
[A] 0.236 µM

[Q] Which TGI is listed for O=C(Nc1ccc(C2=NCCN2)cc1)c1cncc(C(=O)Nc2ccc(C3=NCCN3)cc2)c1 ?
[A] > 100 µM

----------
Tested on: MOLT-4 leukemia
Method: NCI tumour cell line growth inhibition, 48 h
What TGI was measured for each of the following?

[Q] Return reported TGI; argument: CC(=O)NNc1nc(C)c(C(=O)NNC(=O)C(=O)Nc2c(Cl)cc([N+](=O)[O-])cc2Cl)s1
[A] 97.6 µM

[Q] Name the recorded TGI for FC(F)(F)c1cc(Cl)cnc1N/N=C(/c1ccccc1)c1ccccn1 .
[A] 8.82 µM

[Q] Returns the measured TGI for the input compound. Input: Clc1ccc2c(NCCCCNc3nc(N4CCCCC4)nc4ccccc34)ccnc2c1
[A] 5.62 µM

[Q] # TGI lookup, item O=C(O)c1cccc2c1/C(=N/Nc1ccccc1)CC2
[A] > 100 µM

[Q] I am curious: what TGI value has been reported for CC(C)/C(Cl)=N\OC(=O)Nc1ccc(S(N)(=O)=O)cc1 ?
[A] 5.42 µM

----------
System: SK-OV-3 ovarian
Method: NCI tumour cell line growth inhibition, 48 h
Measured Parameter: TGI

[Q] Using the record for NC(=O)C(c1ccccc1)N1OC2C(=O)N(c3ccccc3)C(=O)C2C1c1c2ccccc2c(Cl)c2ccccc12 (stereo unspecified) , report its TGI.
[A] > 100 µM

[Q] Form field: reported TGI of CC(C)CC(=O)OC[n+]1ccc(-c2c(COC(=O)NC(C)C)c(COC(=O)NC(C)C)c3n2CCC3)cc1
[A] > 100 µM

[Q] Return reported TGI; argument: Cc1ccccc1-n1c(=O)c2ncn(CCCl)c2n(-c2ccccc2C)c1=S
[A] > 100 µM

[Q] Please look up its TGI: CCc1ccc(CCN2CCCCC2)nc1
[A] > 100 µM

[Q] Suppose we examine the molecule OCc1ccc(N2CCC2c2ccc(F)cc2)cc1Cl (stereo unspecified) ; what TGI value has been reported?
[A] > 89.1 µM

[Q] GET /values?readout=TGI&item= Cc1cc(=O)[nH]c(NN2C(Cl)C(=O)C2c2ccccc2O)n1 (stereo unspecified)
[A] > 100 µM

[Q] Any idea what TGI was measured for COc1ccc(CNc2nc(NCc3ccc(OC)c(OC)c3)nc(NC3CCCCC3)n2)cc1 ?
[A] > 100 µM

[Q] What measured TGI goes with Cn1cc(C2=C(c3cn(C)c4ncccc34)C(=O)NC2=O)c2ccccc21 ?
[A] 21.7 µM

[Q] Fill blank: measured TGI of the molecule O=C1OCC(O)=C1C(c1ccc(Cl)cc1)c1cc2c(cc1O)OCO2 (stereo unspecified) is ____.
[A] > 100 µM

[Q] Sample O=[N+]([O-])C(=C1NCCN1)/C(Cl)=C(\Cl)Br — what was its TGI?
[A] > 100 µM

[Q] Give the measured TGI of Cc1ccc(SCC(CSCCO)OCn2cnc3c2NC(N)=NC32OCCO2)cc1 (stereo unspecified) .
[A] > 100 µM

----------
System: MALME-3M melanoma
Method: NCI tumour cell line growth inhibition, 48 h
Measured Parameter: TGI

[Q] I am curious: what TGI value has been reported for N#CCCN(CCC#N)c1ccc(/C=C2\N=C(c3cc([N+](=O)[O-])ccc3Cl)OC2=O)cc1 ?
[A] > 100 µM

[Q] Quick check: TGI of O=C(/C=C/c1ccccc1)NC1C=Nc2ccc(Cl)cc2NC1=O (centres undefined) ?
[A] 85.1 µM

[Q] Look up TGI: Cc1cccc2c(=O)cc(-c3ccccc3)[nH]c12
[A] > 100 µM

[Q] Find the recorded TGI belonging to N.N.N.N.O=[N+]([O-])[O-].[Co+3].[N-]=[N+]=[N-].[N-]=[N+]=[N-] and report it.
[A] > 100 µM

[Q] Dear colleague, I am looking for the recorded TGI of the following compound: C=C1c2nc3ccccc3n2C=C(c2ccccc2)N1c1ccc([N+](=O)[O-])cc1
[A] 25.9 µM

[Q] Field request: TGI | item: CC1C=C(CCCCCCCCCCCC[C@@H](O)[C@@H]2CC[C@@H]([C@@H]3CC[C@@H](C(O)CCCCCCCCCCCCC4=C[C@H](C)OC4=O)O3)O2)C(=O)O1 (some centres undefined)
[A] > 100 µM

[Q] What value of TGI has been recorded for this entry: O=C(O)c1ccccc1[Se][Se]c1ccccc1C(=O)O
[A] > 100 µM

[Q] For the compound shown here, O=C1C(Cl)=C(Nc2cccc(Cl)c2)C(=O)N1Cc1ccc(Cl)cc1Cl , give the reported TGI.
[A] 19 µM

[Q] Give its TGI value. Item: Cc1cc(N(CCC#N)CCC#N)ccc1/C(N=Nc1ccc(Cl)cc1)=N\NC(=O)c1ccccc1
[A] > 100 µM

[Q] What value of measured TGI is listed for O=C1/C(=C/c2ccccc2)CN(C(=O)C(Cl)(Cl)Cl)C/C1=C\c1ccccc1 ?
[A] 6.01 µM

[Q] I'd like to know its TGI. The compound in question is CC(C)/C(Cl)=N\OC(=O)Nc1ccc(S(N)(=O)=O)cc1
[A] 10.1 µM

[Q] Name the reported TGI value associated with the compound CC(=O)O[C@H]1C(=O)[C@]2(C)[C@@H](OC(=O)OCCC(O)CO)C[C@H]3OC[C@@]3(OC(C)=O)[C@H]2[C@H](OC(=O)c2ccccc2)[C@]2(O)C[C@H](OC(=O)[C@H](O)[C@@H](NC(=O)c3ccccc3)c3ccccc3)C(C)=C1C2(C)C (some centres undefined)
[A] 16.3 µM

[Q] What TGI value was documented for this compound, O=C1/C(=C/c2cccc([N+](=O)[O-])c2)COc2ccc(O)cc21 ?
[A] 6.75 µM

[Q] So what does the record say about TGI for O=C(Cc1cccs1)N[C@@H]1C(=O)N2C(C(=O)OC(c3ccccc3)c3ccccc3)=C(CO)CS[C@H]12 ?
[A] > 100 µM

[Q] Query (compound): Nc1ccccc1SC(C[N+](=O)[O-])c1ccc2c(c1)OCO2 (centres undefined) ; field requested: TGI
[A] 29.8 µM

[Q] Could you share which TGI value was measured for COc1ccc(C(=O)C(C(=O)CCC(=O)Nc2ccc(C)c(C)c2)c2ccc(OC)cc2)cc1 (centres undefined) ?
[A] > 100 µM

[Q] Quick check: TGI of CCNC(=S)N/N=C/c1cc([N+](=O)[O-])ccc1O ?
[A] > 100 µM

[Q] Please look up its TGI: CCOC(=O)C1=C(C)NC(=S)NC1c1ccccc1 (centres undefined)
[A] > 100 µM

[Q] Look up TGI: NC(Cc1c[nH]c2c(O)cccc12)C(=O)O (centres undefined)
[A] > 100 µM

Numbers sourced from PubChem BioAssay (NCI).
